Source of measurements: patent US9902712B2

System: HFL1 cells
Assay: HFL1 cell proliferation inhibition (CCK-8, optical density at 450 nm)
Assay type: cell-based
Details: IC50 ratio of Pirfenidone to the compound, 48 hours
Can you tell me The ratio with PFD for the items I'm about to list?
Answers are plain numbers, in multiple.

List reported The ratio with PFD for each of these compounds:
1. Cc1cc(=O)n(-c2ccc(N3CCC(Cc4cccc5ccccc45)CC3)c(F)c2)c(C)n1
2. Cc1cc(=O)n(-c2ccc(N3CCC(Oc4ccccc4OC(F)(F)F)CC3)c(Cl)c2)c(C)n1
3. Cc1cc(=O)n(-c2ccc(N3CCC(COc4cccc(F)c4)CC3)c(Cl)c2)c(C)n1
4. Cc1cc(=O)n(-c2ccc(N3CCC(Cc4ccccc4F)CC3)c(Cl)c2)c(C)n1
5. C=CCc1ccccc1OC1CCN(c2ccc(-n3c(C)nc(C)cc3=O)cc2Cl)CC1
6. Cc1cc(=O)n(-c2ccc(N3CCC(Cc4ccc(Cl)c(F)c4)CC3)c(Cl)c2)c(C)n1
7. Cc1cc(=O)n(-c2ccc(N3CCC(Cc4ccccc4Cl)CC3)c(Cl)c2)c(C)n1
8. Cc1cc(=O)n(-c2ccc(N3CCC(Cc4cccc5ccccc45)CC3)c(Cl)c2)c(C)n1

1. 137
2. 119
3. 136
4. 121
5. 149
6. 139
7. 151
8. 179

Batch lookup, The ratio with PFD per entry.
1. Cc1cc(=O)n(-c2ccc(N3CCC(Cc4cccc5cccnc45)CC3)c(Cl)c2)c(C)n1
2. Cc1cc(=O)n(-c2ccc(N3CCC(Cc4ccc(F)c5ccccc45)CC3)c(Cl)c2)c(C)n1
3. Cc1cc(=O)n(-c2ccc(N3CCC(Cc4ccc(F)cc4)CC3)c(F)c2)c(C)n1

[101, 357, 107]

* * *

Tested on: HFL1 cells
Test: HFL1 cell proliferation inhibition (CCK-8, optical density at 450 nm)
Type: cell-based
Details: IC50 ratio of Pirfenidone to the compound, 48 hours
OBSERVATION TYPE: The ratio with PFD (multiple)
Numbers only, in multiple.

// solved cases for The ratio with PFD follow
Query (molecule): "Cc1cc(=O)n(-c2ccc(N3CCC(Cc4ccc(F)c(F)c4)CC3)c(Cl)c2)c(C)n1" ; field requested: The ratio with PFD
139

Same for "Cc1cc(=O)n(-c2ccc(N3CCC(Oc4cccc(N)c4)CC3)c(Cl)c2)c(C)n1"
154

Item: "Cc1cc(=O)n(-c2ccc(N3CCC(Cc4ccc5cc(F)ccc5c4)CC3)c(Cl)c2)c(C)n1"
618

What would you report for "Cc1cc(=O)n(-c2ccc(N3CCC(Oc4cccc(C#N)c4)CC3)c(Cl)c2)c(C)n1" ?
107

Item: "Cc1cc(=O)n(-c2ccc(N3CCC(OCc4cccc(F)c4)CC3)c(Cl)c2)c(C)n1"
107

Now try "Cc1cc(=O)n(-c2ccc(N3CCC(COc4cccc(C(F)(F)F)c4)CC3)c(Cl)c2)c(C)n1" .
602

Try this molecule next: "COc1cccc(CC2CCN(c3ccc(-n4c(C)nc(C)cc4=O)cc3Cl)CC2)c1"
112

One more molecule: "Cc1cc(=O)n(-c2ccc(N3CCC(Cc4ccc5ccccc5c4)CC3)c(Cl)c2)c(C)n1"
111

Dear colleague, could you please provide The ratio with PFD for the molecules listed below?
1. Cc1cc(=O)n(-c2ccc(N3CCC(Cc4cc(F)c(F)c(F)c4)CC3)c(Cl)c2)c(C)n1
2. Cc1cc(=O)n(-c2ccc(N3CCC(Cc4ccccc4-c4ccccc4)CC3)c(Cl)c2)c(C)n1
3. Cc1cc(=O)n(-c2ccc(N3CCC(Cc4cc(F)c(F)c5cccnc45)CC3)c(Cl)c2)c(C)n1
4. Cc1cc(=O)n(-c2ccc(N3CCC(Cc4cc(F)cc5cccnc45)CC3)c(Cl)c2)c(C)n1
5. Cc1ccc(OC2CCN(c3ccc(-n4c(C)nc(C)cc4=O)cc3Cl)CC2)c(Cl)c1
6. Cc1cc(=O)n(-c2ccc(N3CCC(Cc4ccc(C(F)(F)F)c5cccnc45)CC3)c(Cl)c2)c(C)n1
7. Cc1cc(=O)n(-c2ccc(N3CCC(Cc4cccc(C(F)(F)F)c4)CC3)c(Cl)c2)c(C)n1
8. Cc1cc(=O)n(-c2ccc(N3CCC(Cc4cccc(Cl)c4)CC3)c(Cl)c2)c(C)n1

1: 137; 2: 118; 3: 168; 4: 209; 5: 181; 6: 209; 7: 139; 8: 137
